# target or test system: sPLA2-IIA-integrin αvβ3 interaction (Homo sapiens, UniProt P14555)
# Sequence (P14555 21-144): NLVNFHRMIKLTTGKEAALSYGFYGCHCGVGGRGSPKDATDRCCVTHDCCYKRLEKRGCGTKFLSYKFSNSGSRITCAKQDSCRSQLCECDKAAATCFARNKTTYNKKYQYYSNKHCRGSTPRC
# test name: cell adhesion inhibition assay: αvβ3-K562 cells on immobilized sPLA2-IIA
# Assay type: cell-based
# condition details: αvβ3-K562 cells, immobilized sPLA2-IIA; compounds 10 to 500 μM, 30 min; cells 1 h at 37 °C; means ± S.E. (n=3)
Where no end group is shown, it is not given here. [ ]: non-standard residue; d: D form.
measurement name: IC50
Quote the value and follow it with the unit of measurement.

Memo: R-Gly-Arg*-Gly-Asp*-Asp*-Asp* (G[dR]G[dD][dD][dD]-NH2; not fully specified (N-terminus)) [Cmpd21] , reported IC50: 71 µM
